PROCEDURE TEXT: calcium chelation value of crude ligand
Format: physicochemical
Set-up: unit not given here
COND: crude of ligand 3-1 to ligand 3-7 without purification
Each entry below lists one item and its recorded calcium chelation value value.

compound="O=C(O)c1ccccc1C(=O)OCCN(CCOC(=O)c1ccccc1C(=O)O)C(=O)c1ccccc1C(=O)O [ligand 3-1]" property_measured="calcium chelation value" experimental_value=25
compound="O=C(O)c1ccccc1C(=O)OCCN(CCOC(=O)c1ccccc1C(=O)O)C(=O)c1ccccc1C(=O)O [ligand 3-3]" property_measured="calcium chelation value" experimental_value=81
compound="O=C(O)c1ccccc1C(=O)OCCN(CCOC(=O)c1ccccc1C(=O)O)C(=O)c1ccccc1C(=O)O [ligand 3-5]" property_measured="calcium chelation value" experimental_value=75

Consider the record given below.
IN: Quickly give me recorded calcium chelation value for O=C(O)c1ccccc1C(=O)OCCN(CCOC(=O)c1ccccc1C(=O)O)C(=O)c1ccccc1C(=O)O [ligand 3-7]
OUT: 76

* * *

PROCEDURE TEXT: calcium chelation value of crude ligand
Assay type: physicochemical
Parameters: unit not given here
COND: crude of ligand 1-1 to ligand 1-11 without purification
PROPERTY MEASURED: calcium chelation value
// return a plain number; no unit text

The cases that follow already have their calcium chelation value on record.
compound="O=C(O)/C=C/C(=O)OCCN(CCOC(=O)/C=C/C(=O)O)C(=O)/C=C/C(=O)O [ligand 1-8]" property_measured="calcium chelation value" experimental_value=58
compound="O=C(O)/C=C/C(=O)OCCN(CCOC(=O)/C=C/C(=O)O)C(=O)/C=C/C(=O)O [ligand 1-11]" property_measured="calcium chelation value" experimental_value=60
compound="O=C(O)/C=C/C(=O)OCCN(CCOC(=O)/C=C/C(=O)O)C(=O)/C=C/C(=O)O [ligand 1-10]" property_measured="calcium chelation value" experimental_value=62

Consider the record given below.
IN: Quickly give me recorded calcium chelation value for O=C(O)/C=C/C(=O)OCCN(CCOC(=O)/C=C/C(=O)O)C(=O)/C=C/C(=O)O [ligand 1-9]
OUT: 83

Values were extracted from patent US20200095192A1.
